The reported measurements were obtained from the supplement of paper PMC11061612.

test system: HT55 (Colorectal Carcinoma); assay: Bliss excess, mean over the matrix (fraction); higher = more synergy;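 also: after 72 h of two-drug dosing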
Give t when the value for Bliss excess is at least 0.0009. Give f when it is less.

Quick check: does C[C@@H](c1ccc2nccn2c1)n1nnc2ncc(-c3cnn(C)c3)nc21 [Savolitinib] + CN(CC[C@H](CSC1=CC=CC=C1)NC2=C(C=C(C=C2)S(=O)(=O)NC(=O)C3=CC=C(C=C3)N4CCC(CC4)[C@H](C5=CC=CC=C5C6=CC=C(C=C6)Cl)O)S(=O)(=O)C(F)(F)F)CCO [AZD4320] (first compound max 1 µM, 7x7, partner max 1 µM) have Bliss excess greater than or equal to 0.0009? f

Quick check: does COc1cc2ncnc(Nc3ccc(F)c(Cl)c3)c2cc1OCCCN1CCOCC1 [Gefitinib] + CC(C)n1c(=O)n(C)c2cnc3cc(F)c(-c4ccc(OCCCN5CCCCC5)nc4)cc3c21 [AZD1390] (first compound max 10 µM, 7x7, partner max 0.3 µM) have Bliss excess greater than or equal to 0.0009? f

Quick check: does CN(C)CCCOc1ccc(-c2ccc3ncc4c(c3c2)n(C2CCOCC2)c(=O)n4C)cn1 [AZD0156] + CCN(CCO)CCCOc1ccc2c(Nc3cc(CC(=O)Nc4cccc(F)c4)[nH]n3)ncnc2c1 [AZD2811] (first compound max 1 µM, 7x7, partner max 1 µM) have Bliss excess greater than or equal to 0.0009? t

Quick check: does NC1(C(=O)N[C@@H](CCO)c2ccc(Cl)cc2)CCN(c2ncnc3[nH]ccc23)CC1 [Capivasertib] + CC(=O)c1c(C)c2cnc(Nc3ccc(N4CCNCC4)cn3)nc2n(C2CCCC2)c1=O [Palbociclib] (first compound max 10 µM, 7x7, partner max 10 µM) have Bliss excess greater than or equal to 0.0009? f

Quick check: does COc1nnc2ccc(N3CCC(c4ccc(OCCN5CCN(C)C(=O)[C@H]5C)cc4)CC3)nn12 [AZD5153] + C[C@@H]1COCCN1C2=NC(=NC(=C2)C3(CC3)[S@](=N)(=O)C)C4=C5C=CNC5=NC=C4 [AZD6738] (first compound max 1 µM, 7x7, partner max 10 µM) have Bliss excess greater than or equal to 0.0009? t

Quick check: does Cc1cc2ncnn2cc1Nc1ncc2c(n1)n(C1CCOCC1)c(=O)n2C [AZD7648] + CCN(CCO)CCCOc1ccc2c(Nc3cc(CC(=O)Nc4cccc(F)c4)[nH]n3)ncnc2c1 [AZD2811] (first compound max 10 µM, 7x7, partner max 1 µM) have Bliss excess greater than or equal to 0.0009? f

====

system: MHH-ES-1 (Ewing's Sarcoma); assay: combination Emax (second highest fraction inhibited in the dose matrix, 72 h); higher = more inhibition; extreme values may be limits of the assay
Endpoint: combination Emax
The answer should be a number; do not append a unit.

# value of combination Emax, MHH-ES-1 (Ewing's Sarcoma), item CC1(C)CCC(CN2CCN(c3ccc(C(=O)NS(=O)(=O)c4ccc(NCC5CCOCC5)c([N+](=O)[O-])c4)c(Oc4cnc5[nH]ccc5c4)c3)CC2)=C(c2ccc(Cl)cc2)C1 [Venetoclax] + CS(=O)(=O)CCNCc1ccc(-c2ccc3ncnc(Nc4ccc(OCc5cccc(F)c5)c(Cl)c4)c3c2)o1 [Lapatinib] (first compound max 1 µM, 7x7, partner max 10 µM) = 0.371

# value of combination Emax, MHH-ES-1 (Ewing's Sarcoma), item CCN(CCO)CCCOc1ccc2c(Nc3cc(CC(=O)Nc4cccc(F)c4)[nH]n3)ncnc2c1 [AZD2811] + C=CCn1c(=O)c2cnc(Nc3ccc(N4CCN(C)CC4)cc3)nc2n1-c1cccc(C(C)(C)O)n1 [AZD1775] (first compound max 1 µM, partner max 1 µM) = 0.734

# value of combination Emax, MHH-ES-1 (Ewing's Sarcoma), item C[C@@H](c1ccc2nccn2c1)n1nnc2ncc(-c3cnn(C)c3)nc21 [Savolitinib] + CC1(C)CCC(CN2CCN(c3ccc(C(=O)NS(=O)(=O)c4ccc(NCC5CCOCC5)c([N+](=O)[O-])c4)c(Oc4cnc5[nH]ccc5c4)c3)CC2)=C(c2ccc(Cl)cc2)C1 [Venetoclax] (first compound max 1 µM, 7x7, partner max 1 µM) = 0.185
